Listing: Emax of selected molecules
- assay system: zfPXR (Danio rerio, UniProt A5WYG8)
- Sequence (A5WYG8 entry or part of it): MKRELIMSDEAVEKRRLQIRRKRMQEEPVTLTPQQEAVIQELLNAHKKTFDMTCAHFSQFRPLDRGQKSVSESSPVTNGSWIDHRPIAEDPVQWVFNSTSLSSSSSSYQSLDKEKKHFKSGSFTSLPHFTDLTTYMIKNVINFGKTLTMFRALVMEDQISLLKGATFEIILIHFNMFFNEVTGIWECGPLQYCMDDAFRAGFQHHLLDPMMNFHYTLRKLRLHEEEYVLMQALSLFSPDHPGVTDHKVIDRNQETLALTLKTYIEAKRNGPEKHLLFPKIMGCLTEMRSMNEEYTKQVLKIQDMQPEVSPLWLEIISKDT
- assay: HG5LN Gal4-zfPXR luciferase reporter gene assay, agonism
- Assay type: cell-based, zebrafish
- Parameters: dose or concentration left out as unconfirmed
- assay context: HG5LN, read-out: zfPXR agonism Max
# value in %; strip the unit string

Some solved cases for reference:
# molecule, Emax [%]
measured = [
    ("O=S1OCC2C(CO1)C1(Cl)C(Cl)=C(Cl)C2(Cl)C1(Cl)Cl (centres unmarked) [Endosulfan]", 57),
    ("Fc1ccc([C@]2(Cn3cncn3)O[C@H]2c2ccccc2Cl)cc1 (racemic)", 68),
    ("CCCSP(=O)(OCC)SCCC", 38),
]

Problem: Which value of Emax has been reported for ClC1=C(Cl)C2(Cl)C3C(Cl)C=CC3C1(Cl)C2(Cl)Cl (centres unmarked) in the records?
Solution: 44

Problem: Which value of Emax has been reported for C#C[C@]1(O)CC[C@H]2[C@@H]3CCC4=CC(=O)CC[C@@H]4[C@H]3CC[C@@]21C [Norethisterone, reference compound] in the records?
Solution: 54

Problem: Which value of Emax has been reported for CCCOC/C(=N\c1ccc(Cl)cc1C(F)(F)F)n1ccnc1 in the records?
Solution: 48

Problem: Which value of Emax has been reported for C#C[C@]1(O)CC[C@H]2[C@@H]3CCC4=CC(=O)CC[C@@H]4[C@H]3CC[C@@]21CC [Levonorgestrel, reference compound] in the records?
Solution: 74

Problem: Which value of Emax has been reported for COC(=O)c1cc(Oc2ccc(Cl)cc2Cl)ccc1[N+](=O)[O-] in the records?
Solution: 80

---

- assay system: zfPXR (Danio rerio)
- assay: HG5LN Gal4-zfPXR luciferase reporter gene assay, antagonism (coexposure with clotrimazole)
- Assay type: cell-based, zebrafish
- assay context: read-out: zfPXR antagonism IC50
- Text: The cell lines used in this study are listed in Supplementary Table 3 . The HG5LN, HG5LN Gal4-hPXR and HG5LN Gal4-zfPXR cell lines were previously described ([19]). Briefly, HeLa cells stably transfected with the GAL4RE5-βGlobin-Luc-SVNeo plasmid (HG5LN cell line) ([15]). HG5LN cells were stably transfected with the pSG5-GAL4(DBD)-hPXR(LBD)-puro or pSG5-GAL4(DBD)-zfPXR(LBD)-puro plasmids. […]
measurement type: IC50 (µM)
# value in µM; strip the unit string

Problem: Which value of IC50 has been reported for CC(=O)[C@H]1CC[C@H]2[C@@H]3CCC4=CC(=O)CC[C@]4(C)[C@H]3CC[C@]12C [Progesterone, reference compound] in the records?
Solution: 0.64

Problem: Which value of IC50 has been reported for c1ccc2[nH]c(-c3cscn3)nc2c1 in the records?
Solution: 10

Problem: Which value of IC50 has been reported for C[C@]12CCC(=O)C=C1[C@@H]1C[C@@H]1[C@H]1[C@@H]3[C@@H]4C[C@@H]4[C@@]4(CCC(=O)O4)[C@@]3(C)CC[C@@H]12 [Drospirenone, reference compound] in the records?
Solution: 3.6

---

Listing: hPXR agonism Max of selected compounds
- assay system: hPXR (Homo sapiens, UniProt O75469)
- Sequence (O75469 146-433 limits assumed): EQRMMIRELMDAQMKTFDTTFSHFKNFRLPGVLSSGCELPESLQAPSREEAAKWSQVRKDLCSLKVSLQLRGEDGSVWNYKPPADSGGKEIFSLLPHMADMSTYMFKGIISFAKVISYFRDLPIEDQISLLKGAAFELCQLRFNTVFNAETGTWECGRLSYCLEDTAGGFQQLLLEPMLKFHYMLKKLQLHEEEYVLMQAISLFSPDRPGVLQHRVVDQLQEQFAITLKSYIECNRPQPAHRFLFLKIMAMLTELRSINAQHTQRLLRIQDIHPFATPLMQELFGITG
- assay: HG5LN Gal4-hPXR luciferase reporter gene assay, agonism
# value in %; strip the unit string

# compound, value units, hPXR agonism Max
records = [
    ("ClC1=C(Cl)C2(Cl)C3C4CC(C5OC45)C3C1(Cl)C2(Cl)Cl (stereo not drawn)", "%", 66),
]

Problem: Which value of hPXR agonism Max has been reported for Cl[C@H]1[C@H](Cl)[C@@H](Cl)[C@@H](Cl)[C@H](Cl)[C@H]1Cl in the records?
Solution: 62

Problem: Which value of hPXR agonism Max has been reported for CCOP(=O)(NC(C)C)Oc1ccc(SC)c(C)c1 (stereo not drawn) in the records?
Solution: 76
